The measurements presented in this section are drawn from the supplement of paper PMC10883282.

Test system: SYO-1
assay-procedure: relative viability vs DMSO control (72 h) (fraction); higher = more viable cells
experimental-parameters: 0.00457 µM
For each record, write down the corresponding relative viability.
One number for each entry.

Use these answered entries as a reference point.
{"smiles-repr": "CCCCCCCCCCCCCCCCCCOP(=O)([O-])OC1CC[N+](C)(C)CC1", "target": "SYO-1", "relative viability": 1.01}
{"smiles-repr": "CCCS(=O)(=O)N[C@H]1C[C@@H](N(C)c2ncnc3[nH]ccc23)C1", "target": "SYO-1", "relative viability": 0.972}

Below: the item to evaluate.
Identify measured relative viability associated with N#Cc1ccnc(N2C(=O)CC[C@H]2C(=O)N(c2cncc(F)c2)[C@H](C(=O)NC2CC(F)(F)C2)c2ccccc2Cl)c1
1.02

====

Tested on: SK-ES-1
assay-procedure: relative viability vs DMSO control (72 h) (fraction); higher = more viable cells
experimental-parameters: 0.00017 µM
Please go through the items and note down their relative viability.
Give bare numbers.

Example compounds with recorded relative viability:
{"compound": "COc1cc2nccc(Oc3ccc(NC(=O)C4(C(=O)Nc5ccc(F)cc5)CC4)cc3)c2cc1OC [Cabozantinib]", "relative viability": 1.01}
{"compound": "Cc1cn(-c2cc(NC(=O)c3ccc(C)c(Nc4nccc(-c5cnccn5)n4)c3)cc(C(F)(F)F)c2)cn1 [Radotinib]", "relative viability": 1.02}
{"compound": "NC(=O)c1cnc2[nH]ccc2c1N[C@@H]1[C@@H]2CC3C[C@H]1C[C@@](O)(C3)C2 [Peficitinib]", "relative viability": 0.984}

Attention now turns to another entry.
Note relative viability for the compound shown: Cc1ccc(C(=O)OCc2ccc([C@@H](CN)C(=O)Nc3ccc4cnccc4c3)cc2)c(C)c1 [Netarsudil]
1.01

====

Tested on: MES-SA
assay-procedure: relative viability vs DMSO control (72 h) (fraction); higher = more viable cells
experimental-parameters: 0.00017 µM
Assign relative viability to each entry below.
Numbers only.

{"molecule": "Cc1cc(Nc2ncc(Cl)c(Nc3ccccc3S(=O)(=O)C(C)C)n2)c(OC(C)C)cc1C1CCNCC1 [Ceritinib]", "relative viability": 0.953}

// for each molecule below, give its relative viability
1. CNC(=O)c1cc(Oc2ccc(NC(=O)Nc3ccc(Cl)c(C(F)(F)F)c3)cc2)ccn1 [Sorafenib]
2. COc1cc2nccc(Oc3ccc(NC(=O)NC4CC4)c(Cl)c3)c2cc1C(N)=O [Lenvatinib]
3. Cc1ccc(C(=O)OCc2ccc([C@@H](CN)C(=O)Nc3ccc4cnccc4c3)cc2)c(C)c1 [Netarsudil]
4. C#Cc1cccc(Nc2ncnc3cc(OCCOC)c(OCCOC)cc23)c1 [Erlotinib]
5. C=CC(=O)Nc1cccc(Nc2nc(Nc3ccc(N4CCN(C(C)=O)CC4)cc3OC)ncc2C(F)(F)F)c1 [Rociletinib]
6. CO[C@H]1C[C@@H]2CC[C@@H](C)[C@@](O)(O2)C(=O)C(=O)N2CCCC[C@H]2C(=O)O[C@H]([C@H](C)C[C@@H]2CC[C@@H](O)[C@H](OC)C2)CC(=O)[C@H](C)/C=C(\C)[C@@H](O)[C@@H](OC)C(=O)[C@H](C)C[C@H](C)/C=C/C=C/C=C/1C [Rapamycin]

0.928
1.01
0.89
0.95
0.95
0.876

Dear colleague, please send me the reported relative viability for C[C@@H]1COC(Nc2ccc3ncnc(Nc4ccc(OCc5nccs5)c(Cl)c4)c3c2)=N1 [Varlitinib] when you can.
0.965
